Below, each of the compounds is paired with its reported inhibition value.
Molecular target: Metabotropic glutamate receptor 6 (Homo sapiens)
Assay: Inhibition of mGluR6 expressed in CHO cells at 10 uM
Assay type: cell-based

Smiles Structure: Cc1ccc2ccc(-c3cnc(-c4ccccc4)c(C#N)c3)cc2n1
inhibition: < 50%
//
Smiles Structure: Cc1ccc2ccc(-c3ccc(-c4ccccc4)c(C#N)c3)cc2n1
inhibition: < 50%
//
Smiles Structure: Cc1ccc2ccc(-c3cnc(Cl)c(C#N)c3)cc2n1
inhibition: < 50%

---

Molecular target: Glutamate NMDA receptor (Rattus norvegicus) (UniProt P35439+Q00959+Q00960+Q00961+Q62645+Q8VHN2+Q9R1M7)
Test: Displacement of [3H]MK801 from NMDA receptor in rat brain homogenate at 10 uM by scintillation counting
Format: tissue-based
The source made the active and inactive calls. The rule behind the calls is not given here.

Smiles Structure: Cc1nc2cc(-c3cccc(C#N)c3)ccc2s1
Activity: inactive
//
Smiles Structure: COCOc1ccc(-c2ccc3ccc(C)nc3c2)cc1C#N
Activity: inactive
//
Smiles Structure: Cc1ccc2ccc(-c3ccc(-c4ccccc4)c(C#N)c3)cc2n1
Activity: inactive
//
Smiles Structure: Cc1ccc2ccc(-c3cnc(Cl)c(C#N)c3)cc2n1
Activity: inactive
//
Smiles Structure: Cc1ccc2ccc(-c3ccc(-c4cccnc4)c(C#N)c3)cc2n1
Activity: inactive
//
Smiles Structure: Cc1cccc(C#Cc2cncc(C#N)c2)n1
Activity: inactive
//
Smiles Structure: Cc1nc2cc(-c3ccc(OS(=O)(=O)C(F)(F)F)c(C#N)c3)ccc2s1
Activity: inactive
//
Smiles Structure: Cc1nc2cc(-c3ccc(-c4ccc(F)cc4)c(C#N)c3)ccc2s1
Activity: inactive
//
Smiles Structure: Cc1ccc2ccc(-c3ccc(-c4ccc(F)cc4)c(C#N)c3)cc2n1
Activity: inactive

---

Molecular target: UniProt O00222
Sequence (O00222 whole entry): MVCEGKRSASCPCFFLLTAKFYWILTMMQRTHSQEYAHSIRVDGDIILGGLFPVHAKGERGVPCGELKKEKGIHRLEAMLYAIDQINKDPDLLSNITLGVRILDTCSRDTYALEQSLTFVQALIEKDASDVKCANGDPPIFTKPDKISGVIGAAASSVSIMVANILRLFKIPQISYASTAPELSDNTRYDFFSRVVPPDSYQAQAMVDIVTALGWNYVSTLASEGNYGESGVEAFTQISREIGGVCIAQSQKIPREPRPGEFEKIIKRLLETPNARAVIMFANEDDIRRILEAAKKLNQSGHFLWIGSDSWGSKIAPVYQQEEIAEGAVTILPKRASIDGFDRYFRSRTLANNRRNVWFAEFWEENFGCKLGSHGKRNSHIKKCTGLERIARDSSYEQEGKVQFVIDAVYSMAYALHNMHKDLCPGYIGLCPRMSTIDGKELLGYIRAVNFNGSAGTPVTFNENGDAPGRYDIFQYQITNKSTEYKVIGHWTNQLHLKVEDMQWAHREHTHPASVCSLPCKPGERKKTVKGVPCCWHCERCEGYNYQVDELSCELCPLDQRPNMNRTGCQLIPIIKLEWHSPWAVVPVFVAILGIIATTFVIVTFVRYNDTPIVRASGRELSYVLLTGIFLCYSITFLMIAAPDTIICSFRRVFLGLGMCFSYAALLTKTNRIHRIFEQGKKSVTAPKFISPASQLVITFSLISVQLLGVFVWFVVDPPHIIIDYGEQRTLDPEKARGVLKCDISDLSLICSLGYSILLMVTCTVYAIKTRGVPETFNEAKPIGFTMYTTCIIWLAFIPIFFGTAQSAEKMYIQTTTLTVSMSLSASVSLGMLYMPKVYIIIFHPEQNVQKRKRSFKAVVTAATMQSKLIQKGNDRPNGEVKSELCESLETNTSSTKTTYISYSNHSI
Experiment: Inhibition of mGluR8 expressed in CHO cells at 10 uM
Format: cell-based
Quantity Name: inhibition

Smiles Structure: Cc1nc2cc(-c3ccc(OCc4ccccc4)c(C#N)c3)ccc2s1
Assayed System: UniProt O00222
Result: < 50%
--
Smiles Structure: Cc1ccc2ccc(-c3cnc(-c4ccccc4)c(C#N)c3)cc2n1
Assayed System: UniProt O00222
Result: < 50%
--
Smiles Structure: Cc1ccc2ccc(-c3ccc(Cl)cc3C#N)cc2n1
Assayed System: UniProt O00222
Result: < 50%
--
Smiles Structure: Cc1nc2cc(-c3ccc(-c4ccc(F)cc4)c(C#N)c3)ccc2s1
Assayed System: UniProt O00222
Result: < 50%
--
Smiles Structure: Cc1ccc2ccc(-c3ccc(OCc4ccccc4)c(C#N)c3)cc2n1
Assayed System: UniProt O00222
Result: < 50%
--
Smiles Structure: Cc1ccc2ccc(-c3ccc(-c4cccnc4)c(C#N)c3)cc2n1
Assayed System: UniProt O00222
Result: < 50%
--
Smiles Structure: COCOc1ccc(-c2ccc3ccc(C)nc3c2)cc1C#N
Assayed System: UniProt O00222
Result: < 50%
--
Smiles Structure: Cc1ccc2ccc(-c3ccc(-c4ccccc4)c(C#N)c3)cc2n1
Assayed System: UniProt O00222
Result: < 50%
--
Smiles Structure: Cc1nc2cc(-c3cccc(C#N)c3)ccc2s1
Assayed System: UniProt O00222
Result: < 50%
--
Smiles Structure: Cc1nc(C#Cc2cccnc2)cs1
Assayed System: UniProt O00222
Result: < 50%
--
Smiles Structure: Cc1ccc2ccc(-c3cnc(Cl)c(C#N)c3)cc2n1
Assayed System: UniProt O00222
Result: < 50%
--
Smiles Structure: Cc1nc2cc(-c3ccc(OS(=O)(=O)C(F)(F)F)c(C#N)c3)ccc2s1
Assayed System: UniProt O00222
Result: < 50%
--
Smiles Structure: Cc1ccc2ccc(-c3ccc(O)c(C#N)c3)cc2n1
Assayed System: UniProt O00222
Result: < 50%
--
Smiles Structure: Cc1ccc2ccc(-c3ccc(-c4ccc(F)cc4)c(C#N)c3)cc2n1
Assayed System: UniProt O00222
Result: < 50%
--
Smiles Structure: Cc1cccc(C#Cc2cncc(C#N)c2)n1
Assayed System: UniProt O00222
Result: < 50%

---

Target: Metabotropic glutamate receptor 5 (Rattus norvegicus)
pKi: −log10 of the molar value.
Use 6 as the dividing line for pKi, with the line itself on the true (1) side and lower values as false (0).

Smiles Structure: Cc1ccc2ccc(-c3ccc(Cl)cc3C#N)cc2n1
Assigned Label: false (0)
//
Smiles Structure: Cc1nc2cc(-c3ccc(-c4ccc(F)cc4)c(C#N)c3)ccc2s1
Assigned Label: false (0)
//
Smiles Structure: COCOc1ccc(-c2ccc3ccc(C)nc3c2)cc1C#N
Assigned Label: true (1)
//
Smiles Structure: Cc1cccc(C#Cc2cncc(C#N)c2)n1
Assigned Label: true (1)
//
Smiles Structure: Cc1ccc2ccc(-c3ccc(-c4ccc(F)cc4)c(C#N)c3)cc2n1
Assigned Label: true (1)

---

Target: Metabotropic glutamate receptor 5 (Rattus norvegicus, UniProt P31424)
Sequence (P31424 whole entry): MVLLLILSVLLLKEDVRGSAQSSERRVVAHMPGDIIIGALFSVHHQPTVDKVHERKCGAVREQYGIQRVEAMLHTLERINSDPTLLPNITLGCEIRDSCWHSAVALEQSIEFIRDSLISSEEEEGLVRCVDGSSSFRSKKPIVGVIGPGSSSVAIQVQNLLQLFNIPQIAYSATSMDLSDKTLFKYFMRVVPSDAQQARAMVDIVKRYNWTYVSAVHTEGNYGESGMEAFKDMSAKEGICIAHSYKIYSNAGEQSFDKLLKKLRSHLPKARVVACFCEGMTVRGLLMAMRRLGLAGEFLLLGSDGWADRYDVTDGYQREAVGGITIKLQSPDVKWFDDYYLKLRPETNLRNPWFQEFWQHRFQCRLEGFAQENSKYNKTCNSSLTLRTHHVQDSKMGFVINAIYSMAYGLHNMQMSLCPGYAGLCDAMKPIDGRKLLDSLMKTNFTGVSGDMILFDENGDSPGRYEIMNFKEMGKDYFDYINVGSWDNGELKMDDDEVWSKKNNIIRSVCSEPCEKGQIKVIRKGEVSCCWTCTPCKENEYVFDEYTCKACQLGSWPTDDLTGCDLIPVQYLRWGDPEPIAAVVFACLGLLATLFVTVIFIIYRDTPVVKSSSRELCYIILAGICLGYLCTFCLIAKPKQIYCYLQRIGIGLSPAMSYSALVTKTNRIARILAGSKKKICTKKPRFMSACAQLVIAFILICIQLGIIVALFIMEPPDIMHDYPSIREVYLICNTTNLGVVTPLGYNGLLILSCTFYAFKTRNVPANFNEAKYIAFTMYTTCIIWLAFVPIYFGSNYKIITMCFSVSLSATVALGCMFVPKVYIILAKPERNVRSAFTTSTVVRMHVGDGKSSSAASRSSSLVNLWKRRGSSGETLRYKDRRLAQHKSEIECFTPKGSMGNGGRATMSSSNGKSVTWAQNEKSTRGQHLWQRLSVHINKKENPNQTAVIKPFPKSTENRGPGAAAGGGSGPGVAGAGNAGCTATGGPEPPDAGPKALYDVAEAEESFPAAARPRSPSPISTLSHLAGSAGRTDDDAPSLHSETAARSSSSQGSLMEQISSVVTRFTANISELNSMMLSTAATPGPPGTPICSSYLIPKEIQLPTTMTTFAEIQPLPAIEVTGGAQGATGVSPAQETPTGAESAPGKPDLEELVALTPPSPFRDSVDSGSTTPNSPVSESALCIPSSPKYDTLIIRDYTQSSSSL
Assay: Antagonist activity at rat mGluR5 expressed in HEK293A cells assessed as inhibition of glutamate-induced calcium flux preincubated for 140 secs before glutamate challenge by calcium fluorescence assay
// returns condition not met unless IC50 is strictly below 3000 nM, in which case condition met

Smiles Structure: Cc1ccc2ccc(-c3cnc(-c4ccccc4)c(C#N)c3)cc2n1
Assigned Label: condition met
//
Smiles Structure: Cc1ccc2ccc(-c3ccc(O)c(C#N)c3)cc2n1
Assigned Label: condition not met
//
Smiles Structure: Cc1ccc2ccc(-c3ccc(-c4ccccc4)c(C#N)c3)cc2n1
Assigned Label: condition met
//
Smiles Structure: Cc1ccc2ccc(-c3cnc(Cl)c(C#N)c3)cc2n1
Assigned Label: condition not met
//
Smiles Structure: Cc1nc2cc(-c3ccc(-c4ccc(F)cc4)c(C#N)c3)ccc2s1
Assigned Label: condition not met
//
Smiles Structure: Cc1ccc2ccc(-c3ccc(Cl)cc3C#N)cc2n1
Assigned Label: condition not met
//
Smiles Structure: Cc1nc2cc(-c3ccc(OS(=O)(=O)C(F)(F)F)c(C#N)c3)ccc2s1
Assigned Label: condition not met
//
Smiles Structure: Cc1ccc2ccc(-c3ccc(OCc4ccccc4)c(C#N)c3)cc2n1
Assigned Label: condition not met
//
Smiles Structure: Cc1ccc2ccc(-c3ccc(-c4cccnc4)c(C#N)c3)cc2n1
Assigned Label: condition met
//
Smiles Structure: Cc1nc2cc(-c3ccc(OCc4ccccc4)c(C#N)c3)ccc2s1
Assigned Label: condition not met
//
Smiles Structure: Cc1cccc(C#Cc2cncc(C#N)c2)n1
Assigned Label: condition met
//
Smiles Structure: COCOc1ccc(-c2ccc3ccc(C)nc3c2)cc1C#N
Assigned Label: condition met
//
Smiles Structure: Cc1ccc2ccc(-c3ccc(-c4ccc(F)cc4)c(C#N)c3)cc2n1
Assigned Label: condition met

---

Target: Metabotropic glutamate receptor 2 (Homo sapiens)
Assay: Inhibition of mGluR2 expressed in CHO cells at 10 uM
Type: cell-based

Smiles Structure: Cc1nc2cc(-c3ccc(OCc4ccccc4)c(C#N)c3)ccc2s1
inhibition: < 50%
--
Smiles Structure: Cc1nc(C#Cc2cccnc2)cs1
inhibition: < 50%
--
Smiles Structure: Cc1ccc2ccc(-c3cnc(-c4ccccc4)c(C#N)c3)cc2n1
inhibition: < 50%
